These data points were gathered from the RNAGym collection of RNA variant scans (doi:10.1038/s41586-018-0170-7).

B1: tRNA (parent)
chain: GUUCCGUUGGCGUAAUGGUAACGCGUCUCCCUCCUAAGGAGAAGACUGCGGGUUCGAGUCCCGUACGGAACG

variants of: B1; test: yeast fitness, log relative to wild type (ln ratio); higher = fitter; tRNA-Arg(CCU), competitive growth, 37 C, 1 M NaCl
MEASURE: yeast fitness (ln)

>>> df
                           variant_name  test_value
0  G1A U2C G6U C27U C46U C66U A70G C71U      -0.169
1  G1A U2C G6U C27U C46U C66A A70U C71U      -0.264
2                    U2G C66U A70G C71U      -0.121
3               G6U C27U A43C C46U C66A     -0.0176
4           U2G G6A C46U C66U A70U C71U     -0.0272
5            G1A U2G G6A A43C C46U A70U      -0.165
